# Subject of test: recombinant PfCLK3 (Plasmodium falciparum)
# Sequence (Q8IIL5 entry or part of it): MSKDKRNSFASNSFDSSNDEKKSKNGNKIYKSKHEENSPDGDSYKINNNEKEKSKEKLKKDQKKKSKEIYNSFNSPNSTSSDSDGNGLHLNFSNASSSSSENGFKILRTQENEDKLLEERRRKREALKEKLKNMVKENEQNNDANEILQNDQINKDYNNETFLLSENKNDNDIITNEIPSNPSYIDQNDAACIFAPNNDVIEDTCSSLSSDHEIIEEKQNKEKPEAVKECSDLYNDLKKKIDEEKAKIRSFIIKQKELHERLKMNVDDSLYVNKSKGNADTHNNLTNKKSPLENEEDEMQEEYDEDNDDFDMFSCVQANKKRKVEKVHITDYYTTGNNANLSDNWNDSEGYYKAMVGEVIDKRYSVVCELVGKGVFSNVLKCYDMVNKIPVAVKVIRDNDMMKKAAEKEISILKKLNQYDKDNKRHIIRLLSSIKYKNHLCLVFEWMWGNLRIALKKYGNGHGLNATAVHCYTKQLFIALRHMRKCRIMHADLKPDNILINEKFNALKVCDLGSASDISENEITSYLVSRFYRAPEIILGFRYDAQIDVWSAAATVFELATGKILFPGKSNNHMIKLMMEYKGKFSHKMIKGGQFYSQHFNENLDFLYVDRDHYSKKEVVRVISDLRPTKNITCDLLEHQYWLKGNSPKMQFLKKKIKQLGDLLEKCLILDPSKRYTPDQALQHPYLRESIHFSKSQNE
# Test method notes: TR-FRET kinase assay at Km ATP
# Assay type: biochemical
# Test settings: IC50 (apparent), Km ATP (5 μM), 2 hour incubation; errors SD, N ≥ 3; * concentration response curve not complete
Recorded metric: log10 IC50 (log10 of the value in nM)
Please note: log10 values; quantity IC50; unit nM.

input: Fetch value of log10 IC50 on recombinant PfCLK3 (Plasmodium falciparum) for `CCN(CC)Cc1ccc(OC)c(-c2cc3c(-c4ccc(C=O)c(O)c4)ccnc3[nH]2)c1` .
output: 2.19

input: Print recombinant PfCLK3 (Plasmodium falciparum) log10 IC50 for `C#Cc1ccc(-c2c[nH]c3ncc(-c4cc(CN(CC)CC)ccc4OC)cc23)cc1C=O` .
output: 1.20

input: Provide measured log10 IC50 on recombinant PfCLK3 (Plasmodium falciparum) for `CCN(CC)Cc1ccc(OC)c(-c2cnc3[nH]cc(-c4ccc(S(=O)(=O)F)cc4)c3c2)c1` please.
output: 2.48

input: With recombinant PfCLK3 (Plasmodium falciparum) as the test system, provide measured log10 IC50 for this molecule: CCN(CC)Cc1ccc(OC)c(-c2cc3c(-c4ccc(C(=O)O)c(C(C)C)c4)ccnc3[nH]2)c1 [Compound 1, TCMDC-135051, reference compound]
output: 1.23

input: Send back recombinant PfCLK3 (Plasmodium falciparum) log10 IC50 of `C=CC(=O)Nc1ccc(-c2c[nH]c3ncc(-c4cc(CN(CC)CC)ccc4OC)cc23)cc1` only.
output: 3.29

input: Give recombinant PfCLK3 (Plasmodium falciparum) log10 IC50 for the following molecule: `CCN(CC)Cc1ccc(OC)c(-c2cnc3[nH]cc(-c4ccc(C=O)c(O)c4)c3c2)c1`
output: 1.92

input: Please tell me the measured log10 IC50 for `CCN(CC)Cc1ccc(OC)c(-c2cnc3[nH]cc(-c4ccc(O)c(C=O)c4)c3c2)c1` ; system: recombinant PfCLK3 (Plasmodium falciparum).
output: 1.28

----------
# Subject of test: human (h)CLK2 (Homo sapiens)
# Test method notes: Selectivity kinase assay against hCLK2
# Format: biochemical
# Test settings: pIC50 (hCLK2), errors SD, N ≥ 3
# Description: Given this work aims to target a conserved residue, selectivity must be derived from the reversible ligand rather than the covalent interaction.
Recorded metric: IC50
Reply with the number and its unit after it.

input: Annotate the compound CCN(CC)Cc1ccc(OC)c(-c2cc3c(-c4ccc(C(=O)O)c(C(C)C)c4)ccnc3[nH]2)c1 [Compound 1, TCMDC-135051, reference compound] with its measured IC50.
output: 0.891 µM

----------
# Subject of test: human (h)CLK2 (Homo sapiens, UniProt P49760)
# Sequence (P49760 whole entry): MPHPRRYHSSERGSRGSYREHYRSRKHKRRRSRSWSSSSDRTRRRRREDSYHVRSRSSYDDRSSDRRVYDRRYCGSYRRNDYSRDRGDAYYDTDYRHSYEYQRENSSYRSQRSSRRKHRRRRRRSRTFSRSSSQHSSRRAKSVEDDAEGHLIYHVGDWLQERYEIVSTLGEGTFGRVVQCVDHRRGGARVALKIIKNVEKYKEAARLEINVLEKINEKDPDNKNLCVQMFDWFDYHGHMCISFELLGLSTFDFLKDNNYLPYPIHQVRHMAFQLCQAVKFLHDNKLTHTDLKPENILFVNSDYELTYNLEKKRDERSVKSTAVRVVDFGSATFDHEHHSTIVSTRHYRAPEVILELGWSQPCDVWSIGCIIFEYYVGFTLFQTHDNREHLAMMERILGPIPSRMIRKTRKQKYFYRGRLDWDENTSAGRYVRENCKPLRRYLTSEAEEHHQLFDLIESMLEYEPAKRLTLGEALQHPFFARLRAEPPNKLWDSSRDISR
# Test method notes: Selectivity kinase assay against hCLK2
# Format: biochemical
# Test settings: IC50 (hCLK2), errors SD, N ≥ 3
Recorded metric: pIC50
Please express pIC50 as -log10 of the molar concentration.

input: Note down pIC50 recorded for CCN(CC)Cc1ccc(OC)c(-c2cc3c(-c4ccc(C(=O)O)c(C(C)C)c4)ccnc3[nH]2)c1 [Compound 1, TCMDC-135051, reference compound]
output: 6.06

----------
For each record, write down the corresponding Relative Ratio, assignment holo (singly modified).
# Test system: PfCLK3 kinase domain (amino acid residues 334–699)
# Test method notes: Intact protein LC-MS for covalent adduct formation
# Type: binding, Plasmodium falciparum
# Test settings: pH 7.4, 1:5 protein to compound, 4 hours room temperature, compound 4 with C-terminal His-tag construct
A bare number is all that is needed in reply.

input: Give Relative Ratio, assignment holo (singly modified) for the following compound: `C#Cc1ccc(-c2ccnc3[nH]c(-c4cc(CN(CC)CC)ccc4OC)cc23)cc1C=O`
output: 75

input: Identify Relative Ratio, assignment holo (singly modified) associated with the compound `CCN(CC)Cc1ccc(OC)c(-c2cc3c(-c4ccc(O)c(C=O)c4)ccnc3[nH]2)c1`
output: 60

input: Query Relative Ratio, assignment holo (singly modified) for `C#Cc1ccc(-c2c[nH]c3ncc(-c4cc(CN(CC)CC)ccc4OC)cc23)cc1C=O`
output: 80

input: Give me measured Relative Ratio, assignment holo (singly modified), please, for this compound: `CCN(CC)Cc1ccc(OC)c(-c2cnc3[nH]cc(-c4ccc(O)c(C=O)c4)c3c2)c1`
output: 32
